test system: SH-SY5Y NB cells; experiment: Antiproliferative activity / cytotoxicity, Trypan blue assay; format: cell-based; details: Homo sapiens, 72 h, read-out: IC50 72 h
pIC50: −log10 of the molar value.
measuredProperty: pIC50

1) CSc1nc(NCc2ccccc2)c2cnn(CC(Cl)c3ccccc3)c2n1 (stereo not shown) [Compound 1]	4.87
2) ClC(Cn1ncc2c(Nc3cccc(Br)c3)nc(SCCN3CCOCC3)nc21)c1ccccc1 (stereo not shown) [Compound 2]	5.64
3) CC(Cn1ncc2c(Nc3cccc(Cl)c3)nc(SCCN3CCOCC3)nc21)c1ccccc1 (stereo not shown) [Compound 3]	5.81
4) CC(C)Sc1nc(Nc2cccc(O)c2)c2cnn(CC(Cl)c3ccccc3)c2n1 (stereo not shown) [Compound 4]	5.06

----------
Reported values of IC50 for individual entries
test system: SH-SY5Y NB cells; test: Antiproliferative activity / cytotoxicity, Trypan blue assay; assay type: cell-based; conditions: Homo sapiens, 24 h, read-out: IC50 24 h
measuredProperty: IC50

1. CC(Cn1ncc2c(Nc3cccc(Cl)c3)nc(SCCN3CCOCC3)nc21)c1ccccc1 (stereo not shown) [Compound 3]	3.04 µM
2. ClC(Cn1ncc2c(Nc3cccc(Br)c3)nc(SCCN3CCOCC3)nc21)c1ccccc1 (stereo not shown) [Compound 2]	12.6 µM
3. CSc1nc(NCc2ccccc2)c2cnn(CC(Cl)c3ccccc3)c2n1 (stereo not shown) [Compound 1]	21.8 µM
4. CC(C)Sc1nc(Nc2cccc(O)c2)c2cnn(CC(Cl)c3ccccc3)c2n1 (stereo not shown) [Compound 4]	13.6 µM
